B1: MFF (parent)
chain: DDLTVVDAASLRRQIIKLNRRLQL

# Variants of: B1
# ASSAY PROCEDURE: protein stability index of a GFP-peptide fusion (GPS, HEK-293T) (PSI 1-6); higher = more stable;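 also: lentivirally expressed fusions sorted by FACS into six bins by GFP to DsRed ratio, PSI derived from sequencing read proportions per bin multiplied by bin number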
# REPORTED CONDITIONS: c terminus: a fixed tail appended
READOUT LABEL: protein stability index
// return just the number, without any unit appended

MUTATION NAME	protein stability index
V5T	2.69
R13M	2.54
L3R	2.58
S10D	2.05
A8N	2.63

Query: Give the value of protein stability index reported for the following: `V6M`
Response: 1.99

Query: Specify protein stability index for `L22G` and stop.
Response: 3.13

Query: Read the entry `L22P` and write its reported protein stability index.
Response: 3.52

Query: Supply reported protein stability index belonging to this variant: `R13A`
Response: 2.88

Origin of values: the supplement of paper PMC10567573
